Biological target: CD2068 (Clostridioides difficile)
Construct: gene CD630_20680; full coding region in pET28a (NcoI/EcoRI), C-terminal His6 tag kept; expressed in E. coli BL21(DE3) pLysS; inside-out membrane vesicles; ~60 kDa
Sequence (Q188D7 entry or part of it): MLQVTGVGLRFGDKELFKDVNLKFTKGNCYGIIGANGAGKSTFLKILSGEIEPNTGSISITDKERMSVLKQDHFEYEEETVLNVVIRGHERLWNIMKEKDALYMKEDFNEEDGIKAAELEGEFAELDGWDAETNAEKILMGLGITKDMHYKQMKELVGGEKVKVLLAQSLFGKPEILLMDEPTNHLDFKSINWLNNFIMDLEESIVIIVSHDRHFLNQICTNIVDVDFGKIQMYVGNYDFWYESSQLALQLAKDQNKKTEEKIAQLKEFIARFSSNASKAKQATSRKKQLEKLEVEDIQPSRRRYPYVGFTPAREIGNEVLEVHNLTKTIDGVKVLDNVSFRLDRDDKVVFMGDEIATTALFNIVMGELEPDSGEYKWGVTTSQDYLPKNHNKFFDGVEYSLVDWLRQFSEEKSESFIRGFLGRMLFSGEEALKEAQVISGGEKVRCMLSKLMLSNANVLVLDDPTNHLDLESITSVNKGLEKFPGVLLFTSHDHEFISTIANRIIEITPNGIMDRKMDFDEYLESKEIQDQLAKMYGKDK
Experiment: vanadate-sensitive ATPase stimulation, inside-out membrane vesicles, phosphate release
Type: biochemical
Measured pEC50 accompanies every entry in the list below.
Scale explanation: pEC50 corresponds to minus log10 of a concentration expressed in moles per litre.

Use the examples below as a reference point.
{"compound": "CO[C@@]1(NC(=O)Cc2cccs2)C(=O)N2C(C(=O)O)=C(COC(N)=O)CS[C@@H]21 [Cefoxitin]", "pEC50": 5.12}
{"compound": "CC1(C)S[C@@H]2[C@H](NC(=O)[C@H](N)c3ccccc3)C(=O)N2[C@H]1C(=O)O [Ampicillin]", "pEC50": 5.36}
{"compound": "CC[C@H]1OC(=O)[C@H](C)[C@@H](O[C@H]2C[C@@](C)(OC)[C@@H](O)[C@H](C)O2)[C@H](C)[C@@H](O[C@@H]2O[C@H](C)C[C@H](N(C)C)[C@H]2O)[C@](C)(O)C[C@@H](C)/C(=N\\OCOCCOC)[C@H](C)[C@@H](O)[C@]1(C)O [Roxithromycin]", "pEC50": 5.54}
{"compound": "CN[C@H](CC(C)C)C(=O)N[C@H]1C(=O)N[C@@H](CC(N)=O)C(=O)N[C@H]2C(=O)N[C@H]3C(=O)N[C@H](C(=O)N[C@H](C(=O)O)c4cc(O)cc(O)c4-c4cc3ccc4O)[C@H](O)c3ccc(c(Cl)c3)Oc3cc2cc(c3O[C@@H]2O[C@H](CO)[C@@H](O)[C@H](O)[C@H]2O[C@H]2C[C@](C)(N)[C@H](O)[C@H](C)O2)Oc2ccc(cc2Cl)[C@H]1O [Vancomycin]", "pEC50": 5.47}

Continue with the next compound.
# pEC50 (compound: Cc1onc(-c2ccccc2Cl)c1C(=O)N[C@@H]1C(=O)N2[C@@H]1SC(C)(C)[C@@H]2C(=O)O [Cloxacillin] ) is 5.52
